# tgt: LXRβ (Homo sapiens, UniProt P55055)
# Construct: LXRβ (amino acids 156-461); expressed in transfected cells; host or cells: HEK293
# Sequence (P55055 156-460): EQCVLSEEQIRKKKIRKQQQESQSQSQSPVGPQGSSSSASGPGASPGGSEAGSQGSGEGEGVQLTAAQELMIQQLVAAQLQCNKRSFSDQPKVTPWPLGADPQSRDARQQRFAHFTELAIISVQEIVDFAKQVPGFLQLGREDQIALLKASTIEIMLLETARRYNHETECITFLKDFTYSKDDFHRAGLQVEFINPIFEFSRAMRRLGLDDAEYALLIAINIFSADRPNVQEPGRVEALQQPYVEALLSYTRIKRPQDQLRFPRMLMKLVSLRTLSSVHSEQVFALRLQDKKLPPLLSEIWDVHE
# assay_protocol: LXR Gal4 reporter transient transfection assay (mammalian two-hybrid, HEK293), LXRβ
# Format: cell-based
# protocol_conditions: ligand-binding domain (LBD) of LXRβ, HEK293; read-out: LBD-M2H Gal4β
pEC50: −log10 of the molar value.
Task for the reader: assign each of the following compounds its reported pEC50.

Form field: reported pEC50 of Cc1ccc(S(=O)(=O)n2c(-c3cccc(C4CC4C(=O)O)c3)c(-c3ccsc3C#N)c3ccccc32)cc1 (stereo not shown)
> 7.00

Next compound up: `N#Cc1sccc1-c1c(-c2cccs2)n(S(=O)(=O)c2ccc(Cl)cc2)c2cc(CCC(=O)O)c(O)cc12`
5.00 to 6.00

Next compound up: N#Cc1sccc1-c1c(-c2cccc(C3CC3C(=O)O)c2)n(S(=O)(=O)c2ccc(Cl)cc2)c2ccc(F)cc12 (stereo not shown)
> 7.00

Next compound up: `COc1ccc(S(=O)(=O)n2c(-c3ccccc3)c(-c3cc4ccccc4nc3C#N)c3ccccc32)cc1`
6.00 to 7.00

###

# assay_protocol: Short term HFD mouse model: plasma and liver exposure
# Assay type: in vivo
# protocol_conditions: HFD mice, three oral doses of 20 mg/kg over two days, 4 h after final dose
measurement_name: liver exposure 4 h

- molecule: "N#Cc1cccc(C#N)c1-c1c(-c2cccc(-c3ccc(C(=O)O)cc3Cl)c2)n(S(=O)(=O)c2ccc(C(F)F)cc2)c2ccc(F)cc12 [11/12]"
  liver exposure 4 h: "C (1 μM to ≤10 μM)"
- molecule: "N#Cc1nccnc1-c1c(-c2cccc(-c3cc(F)c(C(=O)O)cc3Cl)c2)n(S(=O)(=O)c2ccc(C(F)F)cc2)c2ccc(F)cc12 [11/11]"
  liver exposure 4 h: "D (>10 μM)"
- molecule: "COc1c(C(=O)O)ccc(-c2cccc(-c3c(-c4ccccc4C#N)c4cc(F)ccc4n3S(=O)(=O)c3ccc(C(F)F)cc3)c2)c1Cl [11/27]"
  liver exposure 4 h: "C (1 μM to ≤10 μM)"
- molecule: "Cc1ccc(S(=O)(=O)n2c(-c3cccc(-c4ccc(C(=O)O)cc4Cl)c3)c(-c3ccsc3C#N)c3cc(F)ccc32)cc1 [3/48]"
  liver exposure 4 h: "C (1 μM to ≤10 μM)"
- molecule: "Cc1ccc(S(=O)(=O)n2c(-c3cccc(C45CCC(C(=O)O)(CC4)CC5)c3)c(-c3ccsc3C#N)c3cc(F)ccc32)cc1 [3/64]"
  liver exposure 4 h: "D (>10 μM)"

Form field: reported liver exposure 4 h of N#Cc1sccc1-c1c(-c2cccc(-c3ccc(C(=O)O)cc3Cl)c2)n(S(=O)(=O)c2ccc(C(F)(F)F)nc2)c2ccc(F)cc12 [11/16]
C (1 μM to ≤10 μM)

Next molecule up: O=C(O)c1ccc(-c2cccc(-c3c(-c4ncccc4C(F)(F)F)c4cc(F)ccc4n3S(=O)(=O)c3ccc(C(F)F)cc3)c2)c(Cl)c1 [11/23]
C (1 μM to ≤10 μM)

###

# assay_protocol: Short term HFD mouse model: plasma and liver exposure
# Format: in vivo
# protocol_conditions: HFD mice, three oral doses of 20 mg/kg over two days, 4 h after final dose
measurement_name: liver exposure 4 h

- compound: "N#Cc1ccccc1-c1c(-c2cccc(-c3ccc(C(=O)O)cc3Cl)c2)n(S(=O)(=O)c2ccc(C(F)F)cc2)c2cnccc12"
  liver exposure 4 h: "C (1 μM to ≤10 μM)"
- compound: "O=C(O)c1ccc(-c2cccc(-c3c(-c4ccccc4C4COC4)c4cc(F)ccc4n3S(=O)(=O)c3ccc(C(F)F)cc3)c2)c(Cl)c1"
  liver exposure 4 h: "C (1 μM to ≤10 μM)"
- compound: "O=C(O)c1ccc(-c2cccc(-c3c(-c4c(Cl)cccc4Cl)c4cc(F)ccc4n3S(=O)(=O)c3ccc(C(F)F)cc3)c2)c(Cl)c1"
  liver exposure 4 h: "C (1 μM to ≤10 μM)"
- compound: "N#Cc1ccccc1-c1c(-c2cccc(-c3ccc(C(=O)O)cc3Cl)c2)n(S(=O)(=O)c2ccc(C(F)F)cc2)c2ccc(F)cc12"
  liver exposure 4 h: "C (1 μM to ≤10 μM)"

// below: liver exposure 4 h requested for another compound
Form field: reported liver exposure 4 h of `Cc1ccc(S(=O)(=O)n2c(-c3cccc(-c4ccc(C(=O)O)cc4)c3)c(-c3ccsc3C#N)c3cc(F)ccc32)cc1`
C (1 μM to ≤10 μM)
